Listing: Ki of selected compounds
- TESTED_SYSTEM: Gelatinase
- EXPERIMENT_SUMMARY: MMP inhibition by particle concentration fluorescence technique (gelatinase)
- EXPERIMENTAL_PARAMETERS: pH 7.5; 15 min enzyme preincubation; substrate 1-3 h at room temperature; read-out: MMP Inhibition Constants, Gelatinase Ki
The reply should contain only the number, in nM.

>  <COMPOUND>
CC(C)C[C@@]1(CC(=O)NO)CCN([C@@H](Cc2ccccc2)C(=O)NC2CCN(Cc3ccccc3)CC2)C1=O [Example 43]

>  <UNIT>
nM

>  <Ki>
2.3

$$$$

Please look at the following compound next.
Query: Query Ki on Gelatinase for CC(C)C[C@@]1(CC(=O)NO)CCN([C@@H](Cc2ccccc2)C(=O)NC2CCNCC2)C1=O [Example 44]
Result: 11
